- MEASUREMENT PROTOCOL: in vitro
- EXPERIMENTAL SETUP: human, human liver microsomes
EXPERIMENTAL READOUT: half-life

1. COc1nc2ccc(Br)cc2cc1[C@@H](c1cc(C)c(C)s1)[C@@](O)(CCN(C)C)c1cccc(F)c1 = 60 min
2. COc1nc2ccc(Br)cc2cc1[C@@H](c1ccnc(OC)c1OC)[C@@](O)(CCN(C)C)c1cccc(C#N)c1 = 37 min
3. CCSc1ccc([C@H](c2cc3cc(Br)ccc3nc2OC)[C@@](O)(CCN(C)C)c2cccc(F)c2)cn1 = 64 min
4. COc1nc2ccc(Br)cc2cc1[C@@H](c1ccc(N(C)C)nc1)[C@@](O)(CCN(C)C)c1cccc(F)c1 = 18 min
